The measured values listed here are drawn from patent US20060193821.

System under test: IL-23 (human, p19/p40 heterodimer) (Homo sapiens, UniProt Q9NPF7;P29460 SEQ:20-189,SEQ:23-328)
Sequence (Q9NPF7 20-189, chain 1 of 2): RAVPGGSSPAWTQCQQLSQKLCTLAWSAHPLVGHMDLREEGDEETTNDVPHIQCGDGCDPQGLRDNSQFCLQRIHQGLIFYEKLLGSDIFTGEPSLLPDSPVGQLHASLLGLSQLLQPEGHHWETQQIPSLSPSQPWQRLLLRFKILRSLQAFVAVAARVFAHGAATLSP
Sequence (P29460 23-328, chain 2 of 2): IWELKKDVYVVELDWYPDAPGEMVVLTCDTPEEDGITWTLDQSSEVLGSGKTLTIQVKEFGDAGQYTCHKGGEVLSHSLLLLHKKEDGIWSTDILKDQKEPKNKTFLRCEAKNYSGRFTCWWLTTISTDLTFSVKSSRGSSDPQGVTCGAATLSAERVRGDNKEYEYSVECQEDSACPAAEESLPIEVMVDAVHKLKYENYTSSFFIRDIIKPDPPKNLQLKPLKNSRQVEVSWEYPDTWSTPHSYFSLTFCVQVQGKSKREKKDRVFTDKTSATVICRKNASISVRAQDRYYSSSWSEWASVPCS
Protocol summary: filter; 1X SHMCK, 1 mM Mg, 1 mM Ca, 0.1 mg/mL tRNA, RT
Condition info: tags: R&D Systems, carrier free; label: 5'-32P
Endpoint label: pKd
Worth noting: pKd values are minus log10 of concentrations stated in mol/L.

QUERY: Given AMX91-B8 (ssRNA, 2'-F all C and U (rRfY)) RNA: GGGAAAAGCGAAUCAUACACAAGAAUCCUGGCUUCGCAUAGUGUAUGGGUAGUACGACAGCGCGUGCUCCGCCAGAGACCAACCGAGAA , state its recorded pKd.
RESULT: 7.75

QUERY: What does the record list as pKd for AMX84-A10 (ssRNA, 2'-F all C and U (rRfY)) RNA: GGGAAAAGCGAAUCAUACACAAGAAGUUUUUUGUGCUCUGAGUACUCAGCGUCCGUAAGGGAUAUGCUCCGCCAGAGACCAACCGAGAA ?
RESULT: 7.65

QUERY: I am curious: what pKd value has been reported for AMX84-B10 (ssRNA, 2'-F all C and U (rRfY)) RNA: GGGAAAAGCGAAUCAUACACAAGAAGUGCUUCAUGCGGCAAACUGCAUGACGUCGAAUAGAUAUGCUCCGCCAGAGACCAACCGAGAA ?
RESULT: 7.66

QUERY: Quick check: pKd of AMX84-F11 (ssRNA, 2'-F all C and U (rRfY)) RNA: GGGAAAAGCGAAUCAUACACAAGAUGUGCUUGAGUUAAAUCUCAUCGUCCCCGUUUGGGGAUAUGCUCCGCCAGAGACCAACCGAGAA ?
RESULT: 7.78
